Assayed system: Vitamin D3 receptor (Homo sapiens) (UniProt P11473)
Sequence (P11473 whole entry, looked up): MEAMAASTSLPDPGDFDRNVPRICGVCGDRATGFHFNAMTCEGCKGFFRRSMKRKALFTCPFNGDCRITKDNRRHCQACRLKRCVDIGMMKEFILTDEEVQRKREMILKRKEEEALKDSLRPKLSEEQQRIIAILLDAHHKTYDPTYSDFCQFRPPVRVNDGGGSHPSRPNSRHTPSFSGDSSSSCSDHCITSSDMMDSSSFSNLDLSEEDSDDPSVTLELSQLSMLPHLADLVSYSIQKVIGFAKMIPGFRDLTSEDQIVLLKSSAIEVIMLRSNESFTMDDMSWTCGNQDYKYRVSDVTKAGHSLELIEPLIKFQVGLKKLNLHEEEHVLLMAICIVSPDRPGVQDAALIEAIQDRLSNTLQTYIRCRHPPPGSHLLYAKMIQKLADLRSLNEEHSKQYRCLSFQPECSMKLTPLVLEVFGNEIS
Assay procedure: qHTS assay to identify small molecule agonists of the vitamin D receptor (VDR) signaling pathway (AID 743222); also: % is scaled to controls: 0 for no effect and ±100 for the full control effect
Condition details: HEK293T VDR-UAS-bla, beta-lactamase FRET ratio, 16 h; series mostly up to 63.5 µM
Records with an inconclusive call do not appear. The source made the active and inactive calls. Calls follow the shape of the full dose curve.
Hello, when you answer, please use one of the following outcomes: active, inactive

Query: How was C=C(C)C(=O)OCCCCCC classified in this test?
Result: inactive

====

Assay procedure: A CellTox Green Cytotoxicity Assay to monitor cytotoxicity in HEK293 cells - 24 hour (AID 1224875); also: nearly all actives have a fitted effect of over 45% in size
Condition details: CellTox Green fluorescence; series mostly up to 76.8 µM
Results filed as inconclusive are left out. Calls of active or inactive are those of the source. Calls come from the whole dose curve; as a rule, active = well fitted activation curve with a large enough effect in the repeat runs; inconclusive = weak or mixed curves; inactive = flat fitted curve, though single readings scatter.
Hello, when you answer, please use one of the following outcomes: true (1) (active), false (0) (inactive)

Consider the following illustrative entries.
ClC1=C(Cl)C(Cl)(Cl)C(Cl)=C1Cl : true (1)
OC[C@@H](O)[C@@H](O)[C@H](O)[C@@H](O)CO : false (0)
Oc1ccc2ccccc2c1 : false (0)

Query: How was CCOC(=O)C1OC1c1ccccc1 (centres undefined) classified in this test?
Result: false (0)

Query: How was O=C(Cl)c1c(Cl)c(Cl)c(C(=O)Cl)c(Cl)c1Cl classified in this test?
Result: false (0)

====

Assayed system: Bile acid receptor (Homo sapiens) (UniProt Q96RI1)
Sequence (Q96RI1 whole entry, looked up): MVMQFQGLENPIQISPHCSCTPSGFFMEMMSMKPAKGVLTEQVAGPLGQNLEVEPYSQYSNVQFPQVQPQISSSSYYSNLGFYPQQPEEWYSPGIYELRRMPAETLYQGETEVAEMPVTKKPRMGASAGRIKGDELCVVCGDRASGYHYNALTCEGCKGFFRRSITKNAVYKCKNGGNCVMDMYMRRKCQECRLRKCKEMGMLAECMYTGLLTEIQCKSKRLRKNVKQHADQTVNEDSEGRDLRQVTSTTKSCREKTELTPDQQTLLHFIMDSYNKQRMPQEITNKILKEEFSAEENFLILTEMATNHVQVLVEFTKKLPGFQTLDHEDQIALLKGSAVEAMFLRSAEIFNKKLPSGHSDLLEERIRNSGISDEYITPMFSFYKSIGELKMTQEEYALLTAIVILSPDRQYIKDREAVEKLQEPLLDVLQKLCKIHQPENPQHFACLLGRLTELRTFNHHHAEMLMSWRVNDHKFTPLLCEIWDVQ
Assay procedure: qHTS assay to identify small molecule agonists of the farnesoid-X-receptor (FXR) signaling pathway (AID 743220); also: % is scaled to controls: 0 for no effect and ±100 for the full control effect
Condition details: HEK293T FXR-UAS-bla, beta-lactamase FRET ratio, 16 h; series mostly up to 62.6 µM
Source text: National Center for Advancing Translational Sciences [NCATS] NIH Chemical Genomics Center [NCGC] U.S. Environmental Protection Agency [EPA] National Institutes of Environmental Health Sciences [NIEHS] National Toxicology Program [NTP] U.S. Food and Drug Administration [FDA] The farnesoid-X-receptor (FXR), a nuclear hormone receptor, is highly expressed in liver, intestine, kidney and adrenal cortex. Natural ligands of FXR are the bile acids (Cholic acid, Chenodeoxy cholic acid etc). […]
Inconclusive results are not listed. Active and inactive are the calls of the source. Calls follow the shape of the dose curve; as a rule, active = well fitted activation curve with a large enough effect in the signal ratio in the repeat runs (not every such curve was filed as active); inconclusive = weak or mixed curves, or effect the other way; inactive = flat fitted curve, though single readings scatter; the % refers to the signal ratio.
Observable: outcome

See these solved cases before continuing.
CCc1ccccc1O : inactive
NCCc1ccc(O)c(O)c1 : inactive
CCOC(=O)[C@H](CCc1ccccc1)N[C@@H](C)C(=O)N1Cc2ccccc2C[C@H]1C(=O)O : inactive
C=C1CC[C@H](O)CC1=C/C=C1\CCC[C@]2(C)[C@@H]([C@H](C)/C=C/[C@H](C)C(C)C)CC[C@@H]12 : inactive
NCc1cccc(CN)c1 : inactive

API: the following record is the query input.
Query: Reported outcome for O=Nc1ccc(O)cc1 : what is it?
Result: inactive

====

Assay procedure: qHTS assay for small molecules that induce genotoxicity in human embryonic kidney cells expressing luciferase-tagged ATAD5 (AID 651632); also: % is scaled to controls: 0 for no effect and ±100 for the full control effect; nearly all actives have a fitted effect of over 15% in size
Condition details: HEK293T ATAD5-luciferase induction, 16 h; series mostly up to 83.3 µM
Inconclusive results are not listed. Activity calls are given as the source filed them. Calls follow the shape of the dose curve; as a rule, active = well fitted activation curve with a large enough effect in the repeat runs; inconclusive = weak or mixed curves; inactive = no such curve, though single readings can be large or run the other way.
Observable: outcome

O=C1CCCCC1 : inactive
O=C(Cl)c1c(Cl)c(Cl)c(C(=O)Cl)c(Cl)c1Cl : inactive
OCCOCCOCCOCCO : inactive
CCOC(=O)/C=C\C(=O)OCC : inactive

Where do these numbers come from? They come from PubChem BioAssay (Tox21).
